Read-out record for human cytosolic sialidase NEU2 (Homo sapiens, UniProt Q9Y3R4): IC50
Note: unit µM is implicit; provide only the numeric part.

What is its IC50 for human cytosolic sialidase NEU2 (Homo sapiens, UniProt Q9Y3R4)? Entry: [N-]=[N+]=NC[C@@H](O)[C@@H](O)[C@@H]1OC(C(=O)O)=C[C@H](O)[C@H]1NC(=O)CO [Neu5Gc9N32en (4)]
150

Give human cytosolic sialidase NEU2 (Homo sapiens, UniProt Q9Y3R4) IC50 for CC(=O)N[C@H]1[C@H]([C@H](O)[C@H](O)CN=[N+]=[N-])OC(C(=O)O)=C[C@@H]1O [Neu5Ac9N32en (3)]
43

Lab note: next compound to report on.
Under human cytosolic sialidase NEU2 (Homo sapiens, UniProt Q9Y3R4): IC50 value of COC[C@@H](O)[C@@H](O)[C@@H]1OC(C(=O)O)=C[C@H](O)[C@H]1NC(C)=O [Neu5Ac9Me2en (6)] ?
1100
